Values were extracted from patent US20190359687A1.

# Target of assay: T1, recombinant human glycophorin A ectodomain protein (human, UniProt P02724 20-91)
# T1 construct: 72 amino acids of the extracellular region; also called Hu-rec GPA
# T1 sequence: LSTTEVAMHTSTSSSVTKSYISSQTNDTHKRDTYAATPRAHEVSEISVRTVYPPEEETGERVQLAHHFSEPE
# Measurement notes: ELISA, Fab on coated recombinant human GPA ectodomain
Parameter binding in ELISA relative to parental Fab: see the listing below.

Below: 4 binders and their reported binding in ELISA relative to parental Fab.
- Binder: "TPP-5704, Hu6C12-24 Fab variant VL: (N91D) (Fab, V domains shown, Built on the parental Fab TPP-4935) VH: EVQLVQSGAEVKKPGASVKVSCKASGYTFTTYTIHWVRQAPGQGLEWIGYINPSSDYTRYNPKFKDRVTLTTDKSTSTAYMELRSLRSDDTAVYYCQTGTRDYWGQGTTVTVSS VL: DIQLTQSPSFLSASVGDRVTITCSAASSVSYIYWFQQKPGKAPKLLIYSTSTLPSGVPSRFSGSGSGTEYTLTISSLQPEDFATYYCHQRDSFPFTFGQGTKLEIKR"
  Reported result: "1.1 relative to parental Fab"
- Binder: "TPP-5356, Hu6C12-24 Fab variant VL: (F35Y, Y70F) (Fab, V domains shown, Built on the parental Fab TPP-4935) VH: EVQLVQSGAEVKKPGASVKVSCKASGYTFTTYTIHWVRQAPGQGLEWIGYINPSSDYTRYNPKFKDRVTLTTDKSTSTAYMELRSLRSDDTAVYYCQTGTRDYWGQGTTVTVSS VL: DIQLTQSPSFLSASVGDRVTITCSAASSVSYIYWYQQKPGKAPKLLIYSTSTLPSGVPSRFSGSGSGTEFTLTISSLQPEDFATYYCHQRNSFPFTFGQGTKLEIKR"
  Reported result: "0.6 relative to parental Fab"
- Binder: "TPP-5339, Hu6C12-24 Fab variant VH: (E1Q, I48M, L70M, T72R, K74T, R84S, D89E, Q97A, T98R) (Fab, V domains shown, Built on the parental Fab TPP-4935) VH: QVQLVQSGAEVKKPGASVKVSCKASGYTFTTYTIHWVRQAPGQGLEWMGYINPSSDYTRYNPKFKDRVTMTRDTSTSTAYMELSSLRSEDTAVYYCARGTRDYWGQGTTVTVSS VL: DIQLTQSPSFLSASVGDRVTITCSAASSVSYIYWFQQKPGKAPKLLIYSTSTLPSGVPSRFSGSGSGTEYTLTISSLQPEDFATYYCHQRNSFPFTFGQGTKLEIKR"
  Reported result: "0 relative to parental Fab"
- Binder: "TPP-5695, Hu6C12-24 Fab variant VH: (L70M, T72R) (Fab, V domains shown, Built on the parental Fab TPP-4935) VH: EVQLVQSGAEVKKPGASVKVSCKASGYTFTTYTIHWVRQAPGQGLEWIGYINPSSDYTRYNPKFKDRVTMTRDKSTSTAYMELRSLRSDDTAVYYCQTGTRDYWGQGTTVTVSS VL: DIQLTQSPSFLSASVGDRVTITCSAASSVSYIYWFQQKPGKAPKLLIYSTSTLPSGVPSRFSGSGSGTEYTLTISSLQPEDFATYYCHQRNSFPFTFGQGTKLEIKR"
  Reported result: "1 relative to parental Fab"

Now for the binder whose binding in ELISA relative to parental Fab we want.
Please give measured binding in ELISA relative to parental Fab of the following entry: TPP-5840, Hu6C12-24 Fab variant VL: (S24R, A26S, S49A, P54Q, F95Y); VH: (L70M, T72R) (Fab, V domains shown, Built on the parental Fab TPP-4935) VH: EVQLVQSGAEVKKPGASVKVSCKASGYTFTTYTIHWVRQAPGQGLEWIGYINPSSDYTRYNPKFKDRVTMTRDKSTSTAYMELRSLRSDDTAVYYCQTGTRDYWGQGTTVTVSS VL: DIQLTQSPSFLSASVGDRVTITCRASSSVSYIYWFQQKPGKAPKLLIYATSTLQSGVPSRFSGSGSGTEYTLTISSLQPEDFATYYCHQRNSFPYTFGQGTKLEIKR
4.2 relative to parental Fab
